The entries below come with measured melting point values attached.
Structures can show the parent of a compound that is named as a salt.

Field: example entries. Status: answers known.
O=C(O)c1cc(C(c2cc(F)ccc2F)S(=O)(=O)c2ccc(Cl)cc2)c(Cl)cn1 (stereo not shown)
94 to 96 °C
Cc1cnc(CO)cc1C(c1cc(F)ccc1F)S(=O)(=O)c1ccc(Cl)cc1 (stereo not shown)
196 to 198 °C
Fc1ccc(F)c(C(Sc2ccc(Cl)cc2)c2cc(Cl)ncc2Cl)c1 (stereo not shown)
128 to 129 °C
O=S(=O)(c1ccc(Cl)cc1)C(c1ccccn1)c1cc(F)ccc1F (stereo not shown)
171 to 172 °C
Cc1ccc(C(c2cc(F)ccc2F)S(=O)(=O)c2ccc(Cl)cc2)nc1 (stereo not shown)
159 to 160 °C
O=c1oc2ccccc2c(O)c1C(Sc1ccc(Cl)cc1)c1cc(F)ccc1F (stereo not shown)
146 to 147 °C

Entry COc1cc(S(=O)(=O)C(c2cc(F)ccc2F)c2cc(N)ncc2Cl)ccc1Cl (stereo not shown) — recorded melting point = 198 to 200 °C

// recorded melting point for CS(=O)(=O)Nc1cc(C(c2cc(F)ccc2F)S(=O)(=O)c2ccc(F)cc2)c(Cl)cn1 (stereo not shown) : 178 to 179 °C

response.value for O=S(=O)(c1ccc(Cl)cc1)C(c1cc(F)ccc1F)c1cc(Cl)ncc1Cl (stereo not shown) (hydrate or solvate) (field: melting point) = 147 to 148 °C

// recorded melting point for O=S(=O)(c1ccc(Cl)cc1)C(c1cc(F)ccc1F)c1cc(N2CCC(O)CC2)ncc1Cl (stereo not shown) : 146 to 148 °C

The reported melting point of the molecule O=S(=O)(CCN1CCCCC1)Nc1cc(C(c2cc(F)ccc2F)S(=O)(=O)c2ccc(Cl)cc2)c(Cl)cn1 (stereo not shown) was 200 to 203 °C

Entry CN(CCO)c1cc(C(c2cc(F)ccc2F)S(=O)(=O)c2ccc(Cl)cc2)c(Cl)cn1 (stereo not shown) , melting point reported as 88 to 89 °C

Memo: O=S(=O)(CCO)Nc1cc(C(c2cc(F)ccc2F)S(=O)(=O)c2ccc(Cl)cc2)c(Cl)cn1 (stereo not shown) , reported melting point: 155 to 158 °C

melting point reading for CCOC(=O)C(=O)NCc1ccc(C(c2cc(F)ccc2F)S(=O)(=O)c2ccc(Cl)cc2)nc1 (stereo not shown) : 193 to 194 °C

The reported melting point of the molecule NCCNC(=S)c1ccc(C(c2cc(F)ccc2F)S(=O)(=O)c2ccc(Cl)cc2)nc1 (stereo not shown) (as salt: hydrochloride) was 164 to 166 °C

Record summary for O=S(=O)(c1ccc(Cl)cc1)C(c1cc(F)ccc1F)c1ccncc1Cl (stereo not shown) : reported melting point = 160 to 161 °C

====

PROPERTY: melting point

Example results:
COC(=O)/C=C/c1ccc(C(c2cc(F)ccc2F)S(=O)(=O)c2ccc(Cl)cc2)nc1 (centres unmarked) [Example 44]
145 to 146 °C
Cc1cnc(C(=O)O)cc1C(c1cc(F)ccc1F)S(=O)(=O)c1ccc(Cl)cc1 (centres unmarked) [Example 209]
105 to 107 °C
CS(=O)(=O)Nc1cc(C(c2cc(C#N)ccc2F)S(=O)(=O)c2ccc(Cl)cc2)c(Cl)cn1 (centres unmarked) [Example 236]
118 to 120 °C

Data point: Cc1cnc(NS(C)(=O)=O)cc1C(c1cc(F)ccc1F)S(=O)(=O)c1ccc(Cl)cc1 (centres unmarked) [Example 212] ; melting point = 214 to 217 °C

Quick note, melting point for CS(=O)(=O)Nc1cc(C(c2cc(F)ccc2F)S(=O)(=O)c2ccc(Cl)cc2)c(F)cn1 (centres unmarked) [Example 204] landed at 217 to 219 °C

====

Structures can show the parent of a compound that is named as a salt.
PROPERTY: melting point

Worked cases, melting point given:
O=C(O)CCc1cc(C(c2cc(F)ccc2F)S(=O)(=O)c2ccc(Cl)cc2)c(F)cn1 (centres unmarked) [Example 254]
89 to 91 °C
O=C(NCCO)c1ccc(C(c2cc(F)ccc2F)S(=O)(=O)c2ccc(Cl)cc2)nc1 (centres unmarked) [Example 140]
179 to 181 °C
NCCCNc1cc(C(c2cc(F)ccc2F)S(=O)(=O)c2ccc(Cl)cc2)c(Cl)cn1 (centres unmarked) (as salt: hydrochloride) [Example 173, dihydrochloride]
193 to 195 °C
Cc1cccnc1C(c1cc(F)ccc1F)S(=O)(=O)c1ccc(Cl)cc1 (centres unmarked) [Example 14]
142 to 143 °C
Nc1cc(C(c2cc(F)ccc2F)S(=O)(=O)c2ccc(C(F)(F)F)nc2)c(Cl)cn1 (centres unmarked) [Example 250]
201 to 202 °C
O=C(O)c1cc(C(c2cc(F)ccc2F)S(=O)(=O)c2ccc(Cl)cc2)c(F)cn1 (centres unmarked) [Example 201]
208 to 209 °C
O=S(=O)(c1ccc(Cl)cc1)C(c1cc(F)ccc1F)c1cc(NCCO)ncc1Cl (centres unmarked) [Example 168]
168 to 169 °C

Could you now consider this next compound?
Note to self: melting point recorded for O=S(=O)(c1ccc(Cl)cc1)C(c1ccncc1)C1CCCC1 (centres unmarked) [Example 2] was 133 to 135 °C

====

Measured melting point, listed per entry.

O=S(=O)(c1ccc(Cl)cc1)C(c1ccc(C2OCCO2)cn1)c1cc(F)ccc1F (centres unmarked) [Example 42]
167 to 168 °C
NC(=O)/C=C/c1ccc(C(c2cc(F)ccc2F)S(=O)(=O)c2ccc(Cl)cc2)nc1 (centres unmarked) [Example 136]
219 to 220 °C
Nc1cc(C(c2cc(F)ccc2F)S(=O)(=O)c2ccc(Cl)cc2)c(F)cn1 (centres unmarked) [Example 203]
181 to 183 °C

response.value for Cn1cnc(S(=O)(=O)Nc2cc(C(c3cc(F)ccc3F)S(=O)(=O)c3ccc(Cl)cc3)c(Cl)cn2)c1 (centres unmarked) [Example 268] (field: melting point) = 294 to 296 °C

Form: molecule = O=S(=O)(c1ccc(Cl)cc1)C(c1cc(F)ccc1F)C1CCOCC1 (centres unmarked) [Example 34] ; melting point = 150 to 152 °C

# melting point (molecule: CC(C)(CO)CNc1cc(C(c2cc(F)ccc2F)S(=O)(=O)c2ccc(Cl)cc2)c(Cl)cn1 (centres unmarked) [Example 195] ) is 176 to 178 °C

CS(=O)(=O)Nc1cc(C(c2cc(F)ccc2F)S(=O)(=O)c2ccc(Cl)cc2)c(Cl)cn1 (centres unmarked) [Example 197] has a reported melting point of 220 to 222 °C

Query Nc1cc(C(c2cc(F)ccc2F)S(=O)(=O)c2ccc(Cl)cc2)c(Br)cn1 (centres unmarked) [Example 232] yields melting point of 204 to 206 °C

====

Where a name gives a salt, the structure may show the parent alone.
PROPERTY: melting point

Some solved cases for reference:
O=C(O)/C=C/c1ccc(C(c2cc(F)ccc2F)S(=O)(=O)c2ccc(Cl)cc2)nc1 (stereo not shown)
236 to 238 °C
O=S(=O)(c1ccc(Cl)cc1)C(c1cc(F)ccc1F)c1cc(N2CCCS2(=O)=O)ncc1Cl (stereo not shown)
219 to 221 °C
O=S(=O)(c1ccc(Cl)cc1)C(c1cc(F)ccc1F)c1cc(CO)ncc1Br (stereo not shown)
172 to 173 °C
COc1ccc(S(=O)(=O)C(c2cc(F)ccc2F)c2cc(N)ncc2Cl)cc1 (stereo not shown)
153 to 155 °C
O=S(=O)(Cc1ccncc1)Nc1cc(C(c2cc(F)ccc2F)S(=O)(=O)c2ccc(Cl)cc2)c(Cl)cn1 (stereo not shown)
257 °C (dec.)

What the record says about O=S(=O)(c1ccc(Cl)cc1)C(c1cc(F)ccc1F)c1cc(N2CCOCC2)ncc1Cl (stereo not shown) : melting point is 180 to 181 °C

// sample O=S(=O)(c1ccc(Cl)cc1)C(c1cc(F)ccc1F)c1cc(NS(=O)(=O)C(F)(F)F)ncc1Cl (stereo not shown) , its melting point was 221 to 223 °C

melting point reading for O=S(=O)(c1ccc(Cl)cc1)C(c1cccnc1)c1cc(F)ccc1F (stereo not shown) : 130 to 131 °C

Reported melting point of NCCNc1cc(C(c2cc(F)ccc2F)S(=O)(=O)c2ccc(Cl)cc2)c(Cl)cn1 (stereo not shown) (as salt: hydrochloride) [Example 193, dihydrochloride] : 163 to 166 °C

Noted for O=C(O)CCNc1cc(C(c2cc(F)ccc2F)S(=O)(=O)c2ccc(Cl)cc2)c(Cl)cn1 (stereo not shown) (hydrate or solvate) : its melting point reads 200 to 205 °C

====

PROPERTY: melting point

As a guide, the following entries are already answered.
Fc1ccc(F)c(C(Sc2ccc(Cl)cc2)c2ccc(C3OCCO3)cn2)c1 (centres unmarked)
70 to 73 °C
O=S(=O)(c1ccc(Cl)cc1)C(c1cc(F)ccc1F)C1CCCCC1 (centres unmarked)
107 to 109 °C
CS(=O)(=O)NCCCNc1cc(C(c2cc(F)ccc2F)S(=O)(=O)c2ccc(Cl)cc2)c(Cl)cn1 (centres unmarked)
138 to 139 °C
O=S(=O)(c1ccc(Cl)cc1)C(c1cc(F)ccc1F)C1CCSCC1 (centres unmarked)
150 to 152 °C
Cn1c(Cl)cnc1C(c1cc(F)ccc1F)S(=O)(=O)c1ccc(Cl)cc1 (centres unmarked)
179 to 180 °C
CC(=O)NCCCNc1cc(C(c2cc(F)ccc2F)S(=O)(=O)c2ccc(Cl)cc2)c(Cl)cn1 (centres unmarked)
103 to 105 °C

Lab note: CS(=O)(=O)Nc1cc(C(c2cc(F)ccc2F)S(=O)(=O)c2ccc(Cl)cn2)c(Cl)cn1 (centres unmarked) gave melting point of 214 to 216 °C

// melting point lookup, molecule = O=S(=O)(c1ccc(Cl)cc1)C(c1cc(F)ccc1F)c1cc(NCc2ccncc2)ncc1Cl (centres unmarked) , result: 141 to 142 °C

Sourced from patent US7932271B2
